Numbers sourced from paper PMC8162404.

target.of.assay: Gal-1 (Homo sapiens, UniProt P09382)
Construct: made in house; host or cells: E. coli BL21(DE3)
Sequence (P09382 whole entry): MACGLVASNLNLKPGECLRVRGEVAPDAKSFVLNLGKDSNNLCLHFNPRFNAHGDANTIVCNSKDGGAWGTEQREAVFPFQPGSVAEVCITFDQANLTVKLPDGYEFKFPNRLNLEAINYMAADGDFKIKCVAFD
experimental.details: Pull-down assay with immobilized protein and LSM libraries
Type: binding
conditions: H14 library; 1:1 binding assumed; read-out: Surface mapping KD (apparent)
assay.endpoint: Kd (µM)
Answers are plain numbers, in µM.

smiles.text | Kd [µM]
NCCCC[C@@H](CC(=O)N[C@H]1CCCC[C@@H]1C(N)=O)NC(=O)[C@H]1CCCC[C@@H]1NC(=O)[C@H]1CCCC[C@@H]1NC(=O)C[C@H](Cc1c[nH]c2ccccc12)NC(=O)[C@H]1CCCC[C@@H]1N | 262

Qu. Give its Kd value. Item: C[C@@H](O)[C@@H](CC(=O)N[C@H]1CCCC[C@@H]1C(N)=O)NC(=O)[C@H]1CCCC[C@@H]1NC(=O)[C@H]1CCCC[C@@H]1NC(=O)C[C@H](Cc1ccccc1)NC(=O)[C@H]1CCCC[C@@H]1N
Ans. 348

---

target.of.assay: Gal-1 (Homo sapiens, UniProt P09382)
Construct: made in house; host or cells: E. coli BL21(DE3)
experimental.details: Competition pull-down with lactose
Format: binding
conditions: H14 library; lactose 10 mM; read-out: Surface mapping KD (apparent), competition
Experimental: Interactions between the H14 helical LSMs and the targets were abundant, but safe recognition of the native PPI interfaces on the targets is a criterion of druggability. […] For highlighting the effect of the competitor on the binding fingerprints, KD ratios and the LSM replacement percentages were calculated and are represented as heat maps (see ESI, Fig. S7 ^†). […] To avoid overlooking interesting orthosteric weak binders, direct replacement levels were assessed (see ESI, Fig. S7 ^†). […]
Answer each item with its documented Kd.

Here's what some known entries look like.
smiles.text | assay.endpoint | reported.value
CC[C@H](C)[C@@H](CC(=O)N[C@H]1CCCC[C@@H]1C(N)=O)NC(=O)[C@H]1CCCC[C@@H]1NC(=O)[C@H]1CCCC[C@@H]1NC(=O)C[C@H](CO)NC(=O)[C@H]1CCCC[C@@H]1N | Kd | 478 µM
NC(=O)[C@H]1CCCC[C@@H]1NC(=O)C[C@H](Cc1c[nH]c2ccccc12)NC(=O)[C@H]1CCCC[C@@H]1NC(=O)[C@H]1CCCC[C@@H]1NC(=O)C[C@H](Cc1ccc(O)cc1)NC(=O)[C@H]1CCCC[C@@H]1N | Kd | 112 µM
NC(=O)[C@H]1CCCC[C@@H]1NC(=O)C[C@H](CC(=O)O)NC(=O)[C@H]1CCCC[C@@H]1NC(=O)[C@H]1CCCC[C@@H]1NC(=O)C[C@H](Cc1ccc(O)cc1)NC(=O)[C@H]1CCCC[C@@H]1N | Kd | 177 µM

Please turn your attention to the following entry.
Qu. Provide the documented Kd with Gal-1 (Homo sapiens, UniProt P09382) as the system for CC(C)C[C@@H](CC(=O)N[C@H]1CCCC[C@@H]1C(=O)N[C@H]1CCCC[C@@H]1C(=O)N[C@H](CC(=O)N[C@H]1CCCC[C@@H]1C(N)=O)Cc1c[nH]c2ccccc12)NC(=O)[C@H]1CCCC[C@@H]1N
Ans. 65 µM

---

Answer each item with its documented pKd.
target.of.assay: CaM (Bos taurus)
Construct: made in house; host or cells: E. coli BL21 (DE3)
experimental.details: Pull-down assay with immobilized protein and LSM libraries
Format: binding, bovine
conditions: H14 library; 1:2 stoichiometry assumed; read-out: Surface mapping KD (apparent)
Give bare numbers, as −log10 of the molar value.

Here's what some known entries look like.
molecule | pKd
CC[C@H](C)[C@@H](CC(=O)N[C@H]1CCCC[C@@H]1C(N)=O)NC(=O)[C@H]1CCCC[C@@H]1NC(=O)[C@H]1CCCC[C@@H]1NC(=O)C[C@H](CO)NC(=O)[C@H]1CCCC[C@@H]1N [H14 SI] | 4.12
CSCC[C@@H](CC(=O)N[C@H]1CCCC[C@@H]1C(N)=O)NC(=O)[C@H]1CCCC[C@@H]1NC(=O)[C@H]1CCCC[C@@H]1NC(=O)C[C@H](C)NC(=O)[C@H]1CCCC[C@@H]1N [H14 AM] | 4.01

I have 4 molecules here; please give me pKd for each one.
1. NCCCC[C@@H](CC(=O)N[C@H]1CCCC[C@@H]1C(=O)N[C@H]1CCCC[C@@H]1C(=O)N[C@@H](CO)CC(=O)N[C@H]1CCCC[C@@H]1C(N)=O)NC(=O)[C@H]1CCCC[C@@H]1N [H14 KS]
2. CC[C@H](C)[C@@H](CC(=O)N[C@H]1CCCC[C@@H]1C(N)=O)NC(=O)[C@H]1CCCC[C@@H]1NC(=O)[C@H]1CCCC[C@@H]1NC(=O)C[C@@H](NC(=O)[C@H]1CCCC[C@@H]1N)[C@@H](C)O [H14 TI]
3. CSCC[C@@H](CC(=O)N[C@H]1CCCC[C@@H]1C(N)=O)NC(=O)[C@H]1CCCC[C@@H]1NC(=O)[C@H]1CCCC[C@@H]1NC(=O)C[C@H](CCCCN)NC(=O)[C@H]1CCCC[C@@H]1N [H14 KM]
4. N=C(N)NCCC[C@@H](CC(=O)N[C@H]1CCCC[C@@H]1C(N)=O)NC(=O)[C@H]1CCCC[C@@H]1NC(=O)[C@H]1CCCC[C@@H]1NC(=O)C[C@H](CC(N)=O)NC(=O)[C@H]1CCCC[C@@H]1N [H14 NR]

Ans.
1: 3.58; 2: 4.16; 3: 4.20; 4: 4.24

I have 4 molecules here; please give me pKd for each one.
1. N=C(N)NCCC[C@@H](CC(=O)N[C@H]1CCCC[C@@H]1C(=O)N[C@H]1CCCC[C@@H]1C(=O)N[C@H](CC(=O)N[C@H]1CCCC[C@@H]1C(N)=O)Cc1c[nH]c2ccccc12)NC(=O)[C@H]1CCCC[C@@H]1N [H14 RW]
2. CSCC[C@@H](CC(=O)N[C@H]1CCCC[C@@H]1C(=O)N[C@H]1CCCC[C@@H]1C(=O)N[C@@H](CC(N)=O)CC(=O)N[C@H]1CCCC[C@@H]1C(N)=O)NC(=O)[C@H]1CCCC[C@@H]1N [H14 MN]
3. C[C@@H](O)[C@@H](CC(=O)N[C@H]1CCCC[C@@H]1C(N)=O)NC(=O)[C@H]1CCCC[C@@H]1NC(=O)[C@H]1CCCC[C@@H]1NC(=O)C[C@H](Cc1ccc(O)cc1)NC(=O)[C@H]1CCCC[C@@H]1N [H14 YT]
4. NC(=O)CC[C@@H](CC(=O)N[C@H]1CCCC[C@@H]1C(N)=O)NC(=O)[C@H]1CCCC[C@@H]1NC(=O)[C@H]1CCCC[C@@H]1NC(=O)C[C@H](CO)NC(=O)[C@H]1CCCC[C@@H]1N [H14 SQ]

Ans.
1. 6.22
2. 3.91
3. 4.52
4. 3.75
